Measured pIC50 accompanies every entry in the list below.
Target: BRD4 (Homo sapiens)
Experiment: Time Resolved Fluorescence Resonance Energy Transfer (TR-FRET) binding assay, BRD4
Conditions: one of the FRET assays described; read-out: FRET BRD4 IC50
pIC50: −log10 of the molar value.
recordedMetric: pIC50

COCc1nnn(C)c1-c1cnc2c3ccc(C(C)(C)O)cc3n([C@H](c3ccccc3)C3CCOCC3)c2c1: > 7.60
Cc1nnn(C)c1-c1cnc2c3ccc(C(C)(C)O)cc3n(C(c3ccc(F)cc3F)C3CCOCC3)c2c1 (single isomer, unassigned) [Example 136]: > 8.30
Cc1nnn(C)c1-c1cnc2c3ccc(C(C)(C)O)cc3n(C(c3ccc(F)c(F)c3)C3CCOCC3)c2c1 (single isomer, unassigned) [Example 97]: > 8.30
Cc1noc(C)c1-c1cnc2c3ccc(S(C)(=O)=O)cc3n([C@H](c3ccccc3F)C3CCOCC3)c2c1: > 8.30
[2H]C([2H])([2H])c1nnn(C)c1-c1cnc2c3ccc(C(C)(C)O)cc3n(C(c3ccc(Cl)cn3)C3CCOCC3)c2c1 (single isomer, unassigned): > 8.30
Cc1nnn(C)c1-c1cnc2c3ccc(C(C)(O)C4CC4)c(F)c3n([C@H](c3ccccc3F)C3CCOCC3)c2c1 (single isomer, unassigned) [Example 435]: > 8.30

====

Target: BRD4 (Homo sapiens, UniProt O60885)
Test: Time Resolved Fluorescence Resonance Energy Transfer (TR-FRET) binding assay, BRD4
Conditions: one of the FRET assays described; read-out: FRET BRD4 IC50
pIC50: −log10 of the molar value.
Measured pIC50 accompanies every entry in the list below.
recordedMetric: pIC50

Cc1nnn(C)c1-c1cnc2c3ccc(C(C)(C)O)c(F)c3n(C(c3ccncc3F)C3CCOCC3)c2c1 (single isomer, unassigned) [Example 289]: > 8.30
Cc1nnn(C)c1-c1cnc2c3ccc(C(C)(C)O)cc3n(C(c3cccc(F)c3)C3CCOCC3)c2c1 (single isomer, unassigned) [Example 100]: > 8.30
Cc1nnn(C)c1-c1cnc2c3c(F)cc(C(C)(C)O)cc3n([C@H](c3ccccc3)C3CCOCC3)c2c1: > 8.30
Cc1nnn(C)c1-c1cnc2c3c(F)cc(C(C)(C)O)cc3n(C(c3cccc(F)c3)C3CCOCC3)c2c1 (single isomer, unassigned) [Example 113]: > 5.82
Cc1noc(C)c1-c1cnc2c3ccc(C(C)(C)O)cc3n(C(c3ccc(F)c(F)c3)C3CCOCC3)c2c1 (single isomer, unassigned) [Example 141]: > 7.60
[2H]C([2H])([2H])c1nnn(C)c1-c1cnc2c3cc(F)c(C(C)(C)O)cc3n([C@H](c3ccccc3F)C3CCOCC3)c2c1: > 8.30

====

Target: BRD4 (Homo sapiens, UniProt O60885)
Experiment: Time Resolved Fluorescence Resonance Energy Transfer (TR-FRET) binding assay, BRD4
Conditions: one of the FRET assays described; read-out: FRET BRD4 IC50
recordedMetric: IC50

Cc1cc(C(C2CCOCC2)n2c3cc(C(C)(C)O)ccc3c3ncc(-c4c(C)nnn4C)cc32)no1 (single isomer, unassigned) [Example 287]: < 25 nM
Cc1noc(C)c1-c1cnc2c3ccc(C(C)(C)O)cc3n([C@H](c3ccccn3)C3CCOCC3)c2c1: < 5 nM
Cc1oncc1-c1cnc2c3ccc(C(C)(C)O)cc3n(C(c3ccc(F)cc3)C3CCOCC3)c2c1 (single isomer, unassigned) [Example 41]: < 1500 nM

Just for reference, patent US10112941B2 is where these values come from.
